# Test system: Candida tropicalis
# testDetails: Tested for minimum inhibitory concentration against Candida tropicalis 43 (C.t) at pH of 4.5.
# Format: functional
property: MIC (µg/mL)
Express the result in µg/mL but write the number alone.

// below: answered molecules
1) CC[C@@H](C)[C@H]1C(=O)NCC(=O)N(C)[C@@H](C(C)C)C(=O)N[C@@H](Cc2ccc(OC)cc2)C(=O)O[C@H](C)C(=O)N2CCCC[C@H]2C(=O)N(C)[C@@H](C(C)C)C(=O)N[C@@H](C(C)C)C(=O)N(C)[C@@H](CCOC(C)=O)C(=O)N(C)[C@@H]([C@@H](C)CC)C(=O)N1C :: 100
2) CC[C@@H](C)[C@H]1C(=O)NCC(=O)N(C)[C@@H](C(C)C)C(=O)N[C@@H](Cc2ccc(OC)cc2)C(=O)N[C@@H](C)C(=O)N2CCCC[C@H]2C(=O)N(C)[C@@H](C(C)C)C(=O)N[C@@H](C(C)C)C(=O)N(C)[C@@H](CC(=O)O)C(=O)N(C)[C@@H]([C@@H](C)CC)C(=O)N1C :: 6.25
3) CC[C@H](C)[C@H]1C(=O)NCC(=O)N(C)[C@@H](C(C)C)C(=O)N[C@@H](Cc2ccc(OC)cc2)C(=O)N[C@@H](C)C(=O)N[C@H](C)C(=O)N2CCCC[C@H]2C(=O)N(C)[C@@H](C(C)C)C(=O)N[C@@H](C(C)C)C(=O)N(C)[C@@H](CC(=O)O)C(=O)N(C)[C@@H]([C@@H](C)CC)C(=O)N1C :: 100

Continue with the next molecule.
Ask | Find the recorded MIC belonging to C=CCOc1ccc(C[C@@H]2NC(=O)[C@H](C(C)C)N(C)C(=O)CNC(=O)[C@H]([C@H](C)CC)N(C)C(=O)[C@H]([C@@H](C)CC)N(C)C(=O)[C@H](CC(=O)O)N(C)C(=O)[C@H](C(C)C)NC(=O)[C@H](C(C)C)N(C)C(=O)[C@@H]3CCCCN3C(=O)[C@@H](C)OC2=O)cc1 and report it.
Reply | 100

###

# Tested on: Candida albicans
# testDetails: Tested for minimum inhibitory concentration against Candida albicans 124 (Candida albicans) at pH of 4.5.
# Format: functional
The following compounds are listed with their measured MIC values.
Express the result in µg/mL but write the number alone.

// below: answered compounds
1. CC[C@@H](C)[C@H]1C(=O)NCC(=O)N(C)[C@@H](C(C)C)C(=O)N[C@@H](Cc2ccc(OC)cc2)C(=O)O[C@H](C)C(=O)N2CCCC[C@H]2C(=O)N(C)[C@@H](C(C)C)C(=O)N[C@@H](C(C)C)C(=O)N(C)[C@@H](CC(=O)O)C(=O)N(C)[C@@H]([C@@H](C)CC)C(=O)N1C :: 1.56
2. CC[C@@H](C)[C@H]1C(=O)NCC(=O)N(C)[C@@H](C(C)C)C(=O)N[C@@H](Cc2ccc(OC)cc2)C(=O)N[C@@H](C)C(=O)N2CCCC[C@H]2C(=O)N(C)[C@@H](C(C)C)C(=O)N[C@@H](C(C)C)C(=O)N(C)[C@@H](CC(=O)O)C(=O)N(C)[C@@H]([C@@H](C)CC)C(=O)N1C :: 3.13
3. CC[C@H](C)[C@H]1C(=O)NCC(=O)N(C)[C@@H](C(C)C)C(=O)N[C@@H](Cc2ccc(OC)cc2)C(=O)N[C@@H](C)C(=O)N[C@H](C)C(=O)N2CCCC[C@H]2C(=O)N(C)[C@@H](C(C)C)C(=O)N[C@@H](C(C)C)C(=O)N(C)[C@@H](CC(=O)O)C(=O)N(C)[C@@H]([C@@H](C)CC)C(=O)N1C :: 12.5
4. CC[C@@H](C)[C@H]1C(=O)NCC(=O)N(C)[C@@H](C(C)C)C(=O)N[C@@H](Cc2ccc(OC)cc2)C(=O)N[C@H](C)C(=O)N2CCCC[C@H]2C(=O)N(C)[C@@H](C(C)C)C(=O)N[C@@H](C(C)C)C(=O)N(C)[C@@H](CC(=O)O)C(=O)N(C)[C@@H]([C@@H](C)CC)C(=O)N1C :: 25
5. CC[C@@H](C)[C@H]1C(=O)NCC(=O)N(C)[C@@H](C(C)C)C(=O)N[C@@H](Cc2ccc(OCC(=O)O)cc2)C(=O)O[C@H](C)C(=O)N2CCCC[C@H]2C(=O)N(C)[C@@H](C(C)C)C(=O)N[C@@H](C(C)C)C(=O)N(C)[C@@H](CC(=O)O)C(=O)N(C)[C@@H]([C@@H](C)CC)C(=O)N1C :: 12.5

Continue with the next compound.
Ask | Find the recorded MIC belonging to CC[C@@H](C)[C@H]1C(=O)NCC(=O)N(C)[C@@H](C(C)C)C(=O)N[C@@H](Cc2ccc(OC)cc2)C(=O)O[C@H](C)C(=O)N2CCCC[C@H]2C(=O)N(C)[C@@H](C(C)C)C(=O)N[C@@H](C(C)C)C(=O)N(C)[C@@H](CCOC(C)=O)C(=O)N(C)[C@@H]([C@@H](C)CC)C(=O)N1C and report it.
Reply | 12.5

###

# Test system: Candida albicans
# testDetails: Tested for minimum inhibitory concentration against Candida albicans 124 (Candida albicans) at pH of 6.5.
# Format: functional
property: MIC

Ask | Find the recorded MIC belonging to CC[C@@H](C)[C@H]1C(=O)NCC(=O)N(C)[C@@H](C(C)C)C(=O)N[C@@H](Cc2ccc(OC)cc2)C(=O)O[C@H](C)C(=O)N2CCCC[C@H]2C(=O)N(C)[C@@H](C(C)C)C(=O)N[C@@H](C(C)C)C(=O)N(C)[C@@H](CC(=O)NC[Si](C)(C)C)C(=O)N(C)[C@@H]([C@@H](C)CC)C(=O)N1C and report it.
Reply | > 100 µg/mL

Ask | Find the recorded MIC belonging to CC[C@@H](C)[C@H]1C(=O)NCC(=O)N(C)[C@@H](C(C)C)C(=O)N[C@@H](Cc2ccc(OC)cc2)C(=O)O[C@H](C)C(=O)N2CCCC[C@H]2C(=O)N(C)[C@@H](C(C)C)C(=O)N[C@@H](C(C)C)C(=O)N(C)[C@@H](CCCl)C(=O)N(C)[C@@H]([C@@H](C)CC)C(=O)N1C and report it.
Reply | > 100 µg/mL

Ask | Find the recorded MIC belonging to CC[C@@H](C)[C@H]1C(=O)NCC(=O)N(C)[C@@H](C(C)C)C(=O)N[C@@H](Cc2ccc(OC)cc2)C(=O)O[C@H](C)C(=O)N2CCCC[C@H]2C(=O)N(C)[C@@H](C(C)C)C(=O)N[C@@H](C(C)C)C(=O)N(C)[C@@H](CCN=[N+]=[N-])C(=O)N(C)[C@@H]([C@@H](C)CC)C(=O)N1C and report it.
Reply | > 100 µg/mL

###

# Test system: Pichia kudriavzevii
# testDetails: Tested for minimum inhibitory concentration against Candida krusei 132 (C.k) at pH of 4.5.
# Assay type: functional
The following compounds are listed with their measured MIC values.

// below: answered compounds
1. CC[C@@H](C)[C@H]1C(=O)NCC(=O)N(C)[C@@H](C(C)C)C(=O)N[C@@H](Cc2ccc(OC)cc2)C(=O)N[C@H](C)C(=O)N2CCCC[C@H]2C(=O)N(C)[C@@H](C(C)C)C(=O)N[C@@H](C(C)C)C(=O)N(C)[C@@H](CC(=O)O)C(=O)N(C)[C@@H]([C@@H](C)CC)C(=O)N1C :: > 100 µg/mL
2. CC[C@@H](C)[C@H]1C(=O)NCC(=O)N(C)[C@@H](C(C)C)C(=O)N[C@@H](Cc2ccc(OC)cc2)C(=O)O[C@H](C)C(=O)N2CCCC[C@H]2C(=O)N(C)[C@@H](C(C)C)C(=O)N[C@@H](C(C)C)C(=O)N(C)[C@@H](CCOC(C)=O)C(=O)N(C)[C@@H]([C@@H](C)CC)C(=O)N1C :: > 100 µg/mL

Continue with the next compound.
Ask | State its MIC on Pichia kudriavzevii: CC[C@@H](C)[C@H]1C(=O)NCC(=O)N(C)[C@@H](C(C)C)C(=O)N[C@@H](CC(=O)O)C(=O)O[C@H](C)C(=O)N2CCCC[C@H]2C(=O)N(C)[C@@H](C(C)C)C(=O)N[C@@H](C(C)C)C(=O)N(C)[C@@H](CC(=O)O)C(=O)N(C)[C@@H]([C@@H](C)CC)C(=O)N1C
Reply | > 100 µg/mL

###

# Test system: Meyerozyma guilliermondii
# testDetails: Tested for minimum inhibitory concentration against Candida guilliermondii 80 (C.g) at pH of 6.5.
# Format: functional
The following compounds are listed with their measured MIC values.

// below: answered compounds
1. CC[C@@H](C)[C@H]1C(=O)NCC(=O)N(C)[C@@H](C(C)C)C(=O)N[C@@H](Cc2ccc(OC)cc2)C(=O)O[C@H](C)C(=O)N2CCCC[C@H]2C(=O)N(C)[C@@H](C(C)C)C(=O)N[C@@H](C(C)C)C(=O)N(C)[C@@H](CC(=O)OC(C)(C)C)C(=O)N(C)[C@@H]([C@@H](C)CC)C(=O)N1C :: > 100 µg/mL
2. CC[C@@H](C)[C@H]1C(=O)NCC(=O)N(C)[C@@H](C(C)C)C(=O)N[C@@H](Cc2ccc(OC)cc2)C(=O)O[C@H](C)C(=O)N2CCCC[C@H]2C(=O)N(C)[C@@H](C(C)C)C(=O)N[C@@H](C(C)C)C(=O)N(C)[C@@H](CCO)C(=O)N(C)[C@@H]([C@@H](C)CC)C(=O)N1C :: > 100 µg/mL
3. CC[C@@H](C)[C@H]1C(=O)NCC(=O)N(C)[C@@H](C(C)C)C(=O)N[C@@H](Cc2ccc(OCc3ccc(Cl)cc3)cc2)C(=O)O[C@H](C)C(=O)N2CCCC[C@H]2C(=O)N(C)[C@@H](C(C)C)C(=O)N[C@@H](C(C)C)C(=O)N(C)[C@@H](CC(=O)O)C(=O)N(C)[C@@H]([C@@H](C)CC)C(=O)N1C :: > 100 µg/mL
4. CC[C@@H](C)[C@H]1C(=O)NCC(=O)N(C)[C@@H](C(C)C)C(=O)N[C@@H](Cc2ccc(OC)cc2)C(=O)O[C@H](C)C(=O)N2CCCC[C@H]2C(=O)N(C)[C@@H](C(C)C)C(=O)N[C@@H](C(C)C)C(=O)N(C)[C@@H](CC(=O)Nc2ccc(Br)cc2)C(=O)N(C)[C@@H]([C@@H](C)CC)C(=O)N1C :: > 100 µg/mL
5. C=CCOc1ccc(C[C@@H]2NC(=O)[C@H](C(C)C)N(C)C(=O)CNC(=O)[C@H]([C@H](C)CC)N(C)C(=O)[C@H]([C@@H](C)CC)N(C)C(=O)[C@H](CC(=O)O)N(C)C(=O)[C@H](C(C)C)NC(=O)[C@H](C(C)C)N(C)C(=O)[C@@H]3CCCCN3C(=O)[C@@H](C)OC2=O)cc1 :: 100 µg/mL

Continue with the next compound.
Ask | Find the recorded MIC belonging to CC[C@@H](C)[C@H]1C(=O)NCC(=O)N(C)[C@@H](C(C)C)C(=O)N[C@@H](Cc2ccc(OC)cc2)C(=O)O[C@H](C)C(=O)N2CCCC[C@H]2C(=O)N(C)[C@@H](C(C)C)C(=O)N[C@@H](C(C)C)C(=O)N(C)[C@@H](CCN=[N+]=[N-])C(=O)N(C)[C@@H]([C@@H](C)CC)C(=O)N1C and report it.
Reply | > 100 µg/mL
